# TARGET ENTITY: CDK19/CycC (Homo sapiens, UniProt Q9BWU1)
# Sequence (Q9BWU1 whole entry): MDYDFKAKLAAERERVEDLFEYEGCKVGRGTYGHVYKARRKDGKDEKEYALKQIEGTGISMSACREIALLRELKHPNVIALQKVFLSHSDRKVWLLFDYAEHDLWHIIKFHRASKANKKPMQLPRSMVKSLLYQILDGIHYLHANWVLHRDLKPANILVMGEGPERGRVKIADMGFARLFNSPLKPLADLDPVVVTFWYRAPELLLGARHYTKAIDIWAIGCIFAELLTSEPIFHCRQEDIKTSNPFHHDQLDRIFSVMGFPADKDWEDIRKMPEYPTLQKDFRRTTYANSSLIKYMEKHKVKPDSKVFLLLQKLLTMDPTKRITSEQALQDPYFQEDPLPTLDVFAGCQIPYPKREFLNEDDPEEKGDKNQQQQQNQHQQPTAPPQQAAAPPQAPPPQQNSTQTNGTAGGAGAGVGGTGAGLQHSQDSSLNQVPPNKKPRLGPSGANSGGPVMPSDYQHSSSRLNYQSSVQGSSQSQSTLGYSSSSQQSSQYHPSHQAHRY
# Sequence (P24863 whole entry partner): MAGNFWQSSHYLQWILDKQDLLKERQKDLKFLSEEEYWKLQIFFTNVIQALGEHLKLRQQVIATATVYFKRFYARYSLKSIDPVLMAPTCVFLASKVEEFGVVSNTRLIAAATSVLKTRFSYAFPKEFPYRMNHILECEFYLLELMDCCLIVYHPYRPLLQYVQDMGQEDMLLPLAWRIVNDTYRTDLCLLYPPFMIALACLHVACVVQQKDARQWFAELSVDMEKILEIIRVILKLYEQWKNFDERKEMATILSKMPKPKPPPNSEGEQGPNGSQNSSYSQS
# ASSAY COMMENT: LanthaScreen europium kinase binding assay (FRET displacement), CDK19
# RUN PARAMETERS: his-tagged CDK19/CycC 5 nM, tracer 10 nM, 3 h incubation
MEASURED METRIC: IC50 (nM)

Take a look at these entries with their results.
INSERT INTO measurements (compound, target_entity, measured_metric, experimental_value) VALUES
  ('Cc1cc(Nc2cnc(Nc3ccc(CC(C)C)cc3)nc2)cc(C)n1', 'CDK19/CycC (Homo sapiens, UniProt Q9BWU1)', 'IC50', 2070),
  ('CC(C)Cc1ccc(Nc2ccc(-c3ccncc3)cn2)cc1', 'CDK19/CycC (Homo sapiens, UniProt Q9BWU1)', 'IC50', 3330);

a = CC(C)Cc1ccc(Nc2ncc(Nc3ccncc3OC3CCCNC3)cn2)cc1 (stereo not shown)
b = Cc1cc(-c2cnc(Nc3ccc(CC(C)C)cc3)nc2)cc(C)n1
c = CC(C)Cc1ccc(Nc2ncc(Oc3ccncc3)cn2)cc1
d = Cc1cc(Nc2cnc(Nc3ccc(C4CC4)cc3)nc2)cc(C)n1
# input With regard to IC50, arrange the entries in ascending order, please. A complete answer lists every label in the requested sequence.
# output a, b, c, d

I = Cc1cnc2ccccc2c1Nc1cnc(Nc2ccc(CC(C)C)cc2)nc1
II = CC(C)Cc1ccc(Nc2ncc(-c3ccc(C#N)cn3)cn2)cc1
# input Identify the entry with the larger IC50. Options: I and II Provide the label of your selected option as the answer.
# output II

1 = CC(C)Cc1ccc(Nc2ccc(-c3cccnc3)cn2)cc1
2 = Cc1cnccc1Nc1cnc(Nc2ccc(OC(C)C)cc2)nc1
3 = CCc1cnccc1Nc1cnc(Nc2ccc(C3CCCCC3)cc2)nc1
# input With regard to IC50, arrange the entries in ascending order, please. A complete answer lists every label in the requested sequence.
# output 3, 2, 1
(3: 12 nM, 2: 33 nM, 1: 131 nM)

P = c1cc(Nc2cnc(Nc3ccc(CC4CC4)cc3)nc2)ccn1
Q = COc1cnccc1Nc1cnc(Nc2ccc(CC(C)C)cc2F)nc1
# input Identify the entry with the larger IC50. Options: P and Q Provide the label of your selected option as the answer.
# output P
(P: 138 nM, Q: 7.6 nM)

1 = Cc1cnccc1Nc1cnc(Nc2ccc(CC(C)C)cc2C)nc1
2 = CC(C)Cc1ccc(Nc2ccc(C(=O)c3ccncc3F)cn2)cc1
3 = Cc1cncc(C)c1Nc1cnc(Nc2ccc(CC(C)C)cc2)nc1
# input With regard to IC50, arrange the entries in ascending order, please. A complete answer lists every label in the requested sequence.
# output 3, 2, 1
(3: 4.6 nM, 2: 31 nM, 1: 57 nM)

====

# TARGET ENTITY: CDK19/CycC (Homo sapiens, UniProt Q9BWU1)
# ASSAY COMMENT: LanthaScreen europium kinase binding assay (FRET displacement), CDK19
# RUN PARAMETERS: CDK19/CDK8 selectivity based on IC50 values
# Description: FRET Displacement Assay to Measure IC50: The CDK19/CDK8 IC50 values were measured to evaluate activity and to determine CDK19/CDK8 selectivity. The IC50 values of the disclosed compounds was measured using a LanthaScreen™ europium kinase binding assay (ThermoFisher), as described herein. […]
MEASURED METRIC: CDK19 Selectivity

Take a look at these entries with their results.
INSERT INTO results (compound, measured_metric, experimental_value) VALUES
  ('Cc1cnccc1Nc1cnc(Nc2ccc(OC(C)C)cc2)nc1 [Compound A160]', 'CDK19 Selectivity', 3),
  ('Cc1cc(Nc2cnc(Nc3ccc(CC(C)C)cc3)nc2)c(C)cn1 [Compound A65]', 'CDK19 Selectivity', 2),
  ('CC(C)Cc1ccc(Nc2ncc(C(=O)c3ccncc3OC3CCCC3)cn2)cc1 [Compound A170]', 'CDK19 Selectivity', 2),
  ('Cc1cncc(F)c1C(=O)c1cnc(Nc2ccc(CC(C)C)cc2)nc1 [Compound A117]', 'CDK19 Selectivity', 1.5),
  ('Cc1cnccc1Nc1cnc(Nc2ccc(CC(C)C)cc2C)nc1 [Compound A165]', 'CDK19 Selectivity', 4);

P = Cc1cc(C#N)cc(-c2cnc(Nc3ccc(CC(C)C)cc3)nc2)c1 [Compound A94]
Q = CC(C)Cc1ccc(Nc2ncc(Cc3ccncc3)cn2)cc1 [Compound A138]
# input Of P versus Q , which is the one with smaller reported CDK19 Selectivity? Provide the label of your selected option as the answer.
# output P
(P: 2, Q: 4.8)

====

# TARGET ENTITY: CDK19/CycC (Homo sapiens)
# ASSAY COMMENT: LanthaScreen europium kinase binding assay (FRET displacement), CDK19
# RUN PARAMETERS: his-tagged CDK19/CycC 5 nM, tracer 10 nM, 3 h incubation
MEASURED METRIC: IC50 (nM)

A = CC(C)Cc1ccc(Nc2ncc(NC(=O)c3ccncc3)cn2)cc1 [Compound A48]
B = Cc1cc(Nc2cnc(Nc3cccc(CC(C)C)c3)nc2)ccn1 [Compound A29]
C = CC(C)Cc1ccc(Nc2ncc(-c3cccc(C#N)c3)cn2)cc1 [Compound A92]
# input Which order do these items fall in when sorted by IC50 from largest to smallest? A complete answer lists every label in the requested sequence.
# output A, B, C
(A: 1550 nM, B: 991 nM, C: 335 nM)

====

# TARGET ENTITY: CDK19/CycC (Homo sapiens, UniProt Q9BWU1)
# ASSAY COMMENT: LanthaScreen europium kinase binding assay (FRET displacement), CDK19
# RUN PARAMETERS: his-tagged CDK19/CycC 5 nM, tracer 10 nM, 3 h incubation
pIC50: −log10 of the molar value.
MEASURED METRIC: pIC50

INSERT INTO results (chemical_structure, measured_metric, experimental_value) VALUES
  ('Cc1cc(CC(C)C)ccc1Nc1ncc(C(=O)c2ccncc2)cn1', 'pIC50', 8.05),
  ('Cc1cc(Nc2ncc(Nc3ccncc3)cn2)ccc1F', 'pIC50', 5.05),
  ('Cc1nc(Nc2ccc(CC(C)C)cc2)ncc1Nc1ccncc1', 'pIC50', 7.42),
  ('CC(C)Cc1ccc(Nc2ncc(C(=O)Nc3ccncc3)cn2)cc1', 'pIC50', 5.60),
  ('CC(C)Cc1ccc(Nc2ncc(Nc3ccnc4ccccc34)cn2)cc1', 'pIC50', 7.60);

P = CC(C)Cc1ccc(Nc2ncc(Nc3ccncc3C#Cc3ccccc3)cn2)cc1
Q = Cc1cc(Nc2cnc(Nc3cccc(C4CC4)c3)nc2)ccn1
# input Identify the entry with the larger pIC50. Options: P and Q Provide the label of your selected option as the answer.
# output P

====

# TARGET ENTITY: CDK19/CycC (Homo sapiens, UniProt Q9BWU1)
# ASSAY COMMENT: LanthaScreen europium kinase binding assay (FRET displacement), CDK19
# RUN PARAMETERS: his-tagged CDK19/CycC 5 nM, tracer 10 nM, 3 h incubation
MEASURED METRIC: IC50 (nM)

INSERT INTO assay_data (compound, experimental_value) VALUES
  ('CC(C)Cc1ccc(Nc2ncc(C(F)(F)c3ccncc3)cn2)cc1 [Compound A161]', 9),
  ('CC(C)Cc1ccc(Nc2ncc(-c3cc(C#N)ccn3)cn2)cc1', 1110),
  ('CC(C)Cc1ccc(Nc2ncc(C(F)(F)c3ccncc3)cn2)cc1 [Compound A139]', 5.5),
  ('COc1cc(CC(C)C)ccc1Nc1ncc(C(=O)c2ccncc2)cn1', 5.7);

P = CCc1cnc(C)cc1Nc1cnc(Nc2ccc(CC(C)C)cc2)nc1
Q = CC(C)Cc1ccc(Nc2ncc(Nc3ccncc3OC3CCCCC3)cn2)cc1
R = Cc1cc(C)cc(-c2cnc(Nc3ccc(CC(C)C)cc3)nc2)c1
S = Cc1cc(Nc2cnc(Nc3ccc(CC(C)C)cc3)nc2)c(F)cn1
# input With regard to IC50, arrange the entries in ascending order, please. A complete answer lists every label in the requested sequence.
# output S, Q, P, R

====

# TARGET ENTITY: CDK8 (Homo sapiens)
# Sequence (P49336 whole entry): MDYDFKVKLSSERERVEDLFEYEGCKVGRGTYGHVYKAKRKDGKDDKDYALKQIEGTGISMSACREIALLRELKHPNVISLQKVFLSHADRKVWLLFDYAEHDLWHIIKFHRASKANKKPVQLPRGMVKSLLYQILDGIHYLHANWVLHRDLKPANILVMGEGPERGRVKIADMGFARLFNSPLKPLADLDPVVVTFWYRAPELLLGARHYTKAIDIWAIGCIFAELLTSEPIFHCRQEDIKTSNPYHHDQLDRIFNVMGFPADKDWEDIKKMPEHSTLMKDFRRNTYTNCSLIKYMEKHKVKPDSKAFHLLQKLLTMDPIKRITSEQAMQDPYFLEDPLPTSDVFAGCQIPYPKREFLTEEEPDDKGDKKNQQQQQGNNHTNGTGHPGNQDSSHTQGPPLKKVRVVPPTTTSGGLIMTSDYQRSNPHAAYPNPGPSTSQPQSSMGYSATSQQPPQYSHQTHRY
# Sequence (P24863 whole entry partner): as the sequence (P24863 whole entry partner) above
# ASSAY COMMENT: LanthaScreen europium kinase binding assay (FRET displacement), CDK8
MEASURED METRIC: IC50 (nM)

Take a look at these entries with their results.
INSERT INTO results (chemical_structure, measured_metric, experimental_value) VALUES
  ('CC(C)Cc1ccc(Nc2ccc(C(=O)c3ccncc3)cn2)cc1', 'IC50', 13),
  ('Cc1cc(CC(C)C)ccc1Nc1ncc(C(=O)c2ccncc2)cn1', 'IC50', 34),
  ('Cc1cnccc1Nc1cnc(Nc2cccc(CC(C)C)c2)nc1', 'IC50', 1320),
  ('c1cc(Nc2cnc(Nc3ccc(C4CCCC4)cc3)nc2)c(OC2CCCC2)cn1', 'IC50', 8.2),
  ('c1cc(Nc2cnc(Nc3ccc(C4CCC4)cc3)nc2)ccn1', 'IC50', 19);

a = CC(C)Cc1ccc(Nc2ncc(-c3cccc(-c4ccncc4)c3)cn2)cc1
b = CC(C)Cc1ccc(Nc2ncc(Nc3ccnc(C4CC4)c3)cn2)cc1
c = CC(C)Cc1ccc(Nc2ncc(Nc3ccncc3Cl)cn2)c(F)c1
d = CCc1cnc(C)cc1Nc1cnc(Nc2ccc(CC(C)C)cc2)nc1
# input With regard to IC50, arrange the entries in ascending order, please. A complete answer lists every label in the requested sequence.
# output c, a, b, d

Reference for the values: patent US20240351996A1
